# credit: paper PMC5540273

Test system: BTK
Test Conditions: concentration: 1 μM,replicates: in singlicate; n = 1;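 further: KINOMEscan kinase panel screen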
The compounds listed here are annotated with their %Inh.
Kindly provide the numeric value in % only, without the unit symbol.

Examples with their reported %Inh follow.
CC(C(=O)NC1CCN(c2ccnc(Nc3ccc(F)cc3)n2)C1)c1ccc(Cl)cc1 (stereo not drawn) [GSK1379713]    0
COC(=O)c1cccc(NC(=O)NC2CCN(c3ccnc(NCc4ccc(F)cc4)n3)CC2)c1 [GSK1379860]    0
COc1cc(Nc2nccc(N3CCC(NC(=O)c4cccc(C#N)c4)C3)n2)cc(OC)c1OC (stereo not drawn) [GSK1379751]    0
Cn1ccc2ncnc(Oc3ccc(NC(=O)Nc4cnn(C(C)(C)C)c4)c(Cl)c3)c21    0
Cl.Nc1n[nH]c2cc(-c3ccccn3)ccc12 [GSK2189892]    0
COC(=O)Nc1nc2cc(Oc3ccc(NC(=O)Nc4cc(C(F)(F)F)ccc4Cl)cc3)ccc2[nH]1.Cl [GW697465]    7
FC(F)(F)c1cc(Br)cc(Nc2nccc(-c3cnn4ncccc34)n2)c1 [GW810578]    0
C[C@@H]1CCN(C(=O)N2CCCC2)C[C@@H]1N(C)c1ncnc2[nH]ccc12    1

Continue with the next compound.
Problem: Tell me the measured %Inh of O=c1[nH]cc(-c2ccc(O)cc2)c2sc(-c3ccncc3)cc12 [GSK1033723] , please.
Result: 0

* * *

The compounds listed here are annotated with their %Inh.
System: CDK4-cyclinD3
Test Conditions: concentration: 1 μM,replicates: in singlicate; n = 1
Kindly provide the numeric value in % only, without the unit symbol.

C[C@@H]1CNc2c(sc3ccc4nc(-c5ccc(O)cc5)ccc4c23)C(=O)N1    0

Problem: Tell me the measured %Inh of Cn1ccc2ncnc(Oc3ccc(NC(=O)Nc4cccc(C(F)(F)F)c4)c(F)c3)c21 , please.
Result: 0

* * *

Test system: PCTK2
Construct: gene CDK17
Test Conditions: concentration: 1 μM,replicates: in singlicate; n = 1
The molecules listed here are annotated with their %Inh.
Kindly provide the numeric value in % only, without the unit symbol.

Examples with their reported %Inh follow.
Cc1ccc(C(=O)Nc2ccc(Oc3ccc4nc(NC(=O)C5CC5)cn4c3)c(F)c2)c(=O)n1-c1ccccc1    2
Cl.Nc1n[nH]c2cc(-c3ccccn3)ccc12    13
CCn1c(-c2nonc2N)nc2cncc(CNC3CCNCC3)c21.Cl    0

Continue with the next molecule.
Problem: Tell me the measured %Inh of C[C@@H]1CCN(C(=O)N2CCCC2)C[C@@H]1N(C)c1ncnc2[nH]ccc12 , please.
Result: 0

* * *

The compounds listed here are annotated with their %Inh.
System: GCN2(Kin.Dom.2,S808G)
Construct: gene EIF2AK4
Test Conditions: concentration: 1 μM,replicates: in singlicate; n = 1
Kindly provide the numeric value in % only, without the unit symbol.

Examples with their reported %Inh follow.
COC(=O)c1cccc(NC(=O)NC2CCN(c3ccnc(NCc4ccc(F)cc4)n3)CC2)c1    0
Cc1ccc(Nc2ccnc(Nc3ccc4c(c3)CS(=O)(=O)C4)n2)cc1O.Cl    98.4
O=C(Nc1ccc(Oc2ccc3nc(NC(=O)C4CC4)cn3n2)c(F)c1)c1cccn(-c2ccccc2)c1=O    20
OCCn1cc(-c2cnc3nnn(Cc4ccc5ncccc5c4)c3n2)cn1    0

Continue with the next compound.
Problem: Please state recorded %Inh (tested on GCN2(Kin.Dom.2,S808G)) of O=C(Nc1cccc(C(F)(F)F)c1)c1cccc(Oc2ccc3nccn3n2)c1
Result: 0

* * *

Test system: BTK
Test Conditions: concentration: 1 μM,replicates: in singlicate; n = 1
Measurement Type: %Inh (%)
Kindly provide the numeric value in % only, without the unit symbol.

Examples with their reported %Inh follow.
CC(=O)c1c(-c2ccncc2)[nH]c(-c2ccncc2)c1C    7
Cn1ccc2ncnc(Oc3ccc(NC(=O)Nc4cncc(C(F)(F)F)c4)c(Cl)c3)c21    0
O=C(Nc1ccccc1)c1cccc(Oc2ccc3nccn3n2)c1    0
Cc1ccc(Nc2ccnc(Nc3ccc4c(c3)CS(=O)(=O)C4)n2)cc1O.Cl    100

Problem: Please state recorded %Inh (tested on BTK) of COc1cccc(C2=C(Nc3cccc(Cl)c3)C(=O)NC2=O)c1
Result: 0

* * *

The molecules listed here are annotated with their %Inh.
System: HIPK4
Test Conditions: concentration: 1 μM,replicates: in singlicate; n = 1
Kindly provide the numeric value in % only, without the unit symbol.

COc1cc2c(Nc3ccc(NC(=O)c4ccccc4)cc3)ncnc2cc1OCCCN1CCOCC1 [GSK301329]    79
O=C(Nc1cccc(C(F)(F)F)c1)c1cccc(Oc2ccc3nccn3n2)c1    65

Problem: Please state recorded %Inh (tested on HIPK4) of CS(=O)(=O)Nc1ccc(-c2ccnc3[nH]ccc23)cc1 [GSK993273]
Result: 34

Problem: Now try COc1cccc(C2=C(Nc3cccc(Cl)c3)C(=O)NC2=O)c1 [SB-341556] .
Result: 0

Problem: Now try CN(c1ccc2c(c1)nc(NCc1ccc(F)cc1)n2C)c1ccnc(Nc2ccc(CS(C)(=O)=O)cc2)n1.Cl [GW813244] .
Result: 79

Problem: Now try C[C@@H]1CCN(C(=O)N2CCCC2)C[C@@H]1N(C)c1ncnc2[nH]ccc12 .
Result: 2

Problem: Now try CCn1c(-c2nonc2N)nc2cncc(Br)c21 [SB-738004] .
Result: 0

Problem: Now try CCn1c(-c2nonc2N)nc2cncc(CNC3CCNCC3)c21.Cl [SB-747651] .
Result: 0

Problem: Now try Cl.Nc1n[nH]c2cc(-c3ccccn3)ccc12 [GSK2189892] .
Result: 0

Problem: Now try C[C@@H]1CNc2c(sc3ccc4nc(-c5ccncc5)ccc4c23)C(=O)N1 .
Result: 0

* * *

Test system: LOK
Construct: gene STK10
Test Conditions: concentration: 1 μM,replicates: in singlicate; n = 1
The compounds listed here are annotated with their %Inh.
Kindly provide the numeric value in % only, without the unit symbol.

Examples with their reported %Inh follow.
COc1cccc(OC)c1C(=O)Nc1cccc(-c2nn3ccccc3c2-c2ccnc(Nc3cccc(F)c3)n2)c1 [GSK361065]    90
CC(=O)Nc1ccc(-c2cc3ncnc(SCC(=O)O)c3s2)cc1    5
CSc1nccc(-c2c(-c3ccc(F)cc3)ncn2CCCN2CCOCC2)n1.Cl [SB-217146]    8
O=C(Nc1n[nH]c2cc(-c3ccco3)ccc12)C1CC1 [SB-737447]    3

Continue with the next compound.
Problem: Please state recorded %Inh (tested on LOK) of CS(=O)(=O)Nc1ccc(-c2ccnc3[nH]ccc23)cc1 [GSK993273]
Result: 0

* * *

Tested on: LKB1
Construct: gene STK11
Test Conditions: concentration: 1 μM,replicates: in singlicate; n = 1
Measurement Type: %Inh (%)
Kindly provide the numeric value in % only, without the unit symbol.

Examples with their reported %Inh follow.
CN(c1ccccc1CNc1nc(Nc2ccc3c(c2)CC(=O)N3)ncc1C(F)(F)F)S(C)(=O)=O    0
COc1cccc(CNC(=O)NC2CCN(c3ccnc(Nc4cc(OC)c(OC)c(OC)c4)n3)C2)c1 (stereo not drawn) [GSK1379765]    0
C[C@@H]1CCN(C(=O)N2CCCC2)C[C@@H]1N(C)c1ncnc2[nH]ccc12    0
NC(=O)c1ccc(-c2cc3ncnc(SCC(=O)O)c3s2)cc1    18
CCCC(=O)Nc1n[nH]c2ncccc12 [SB-601436]    0
CN(c1ccc2c(c1)nc(NCc1ccc(F)cc1)n2C)c1ccnc(Nc2ccc(CS(C)(=O)=O)cc2)n1.Cl [GW813244]    29
O=C(Nc1cccc(Oc2ccc3nccn3n2)c1)Nc1cccc(C(F)(F)F)c1    0
Cl.Cl.NC[C@H](CC1CCCCC1)NC(=O)c1ccc(-c2ccnc3[nH]ccc23)s1 [GSK1581428]    50

Continue with the next compound.
Problem: Tell me the measured %Inh of Cc1nnc(-c2ccc3occ(-c4ccc(S(C)=O)cc4)c3n2)o1 (stereo not drawn) , please.
Result: 3

* * *

Tested on: ASK1
Construct: gene MAP3K5
Test Conditions: concentration: 1 μM,replicates: in singlicate; n = 1
Measurement Type: %Inh (%)
Kindly provide the numeric value in % only, without the unit symbol.

Examples with their reported %Inh follow.
CN(c1ccccc1CNc1nc(Nc2ccc3c(c2)CC(=O)N3)ncc1C(F)(F)F)S(C)(=O)=O    0
FC(F)(F)c1cc(Br)cc(Nc2nccc(-c3cnn4ncccc34)n2)c1    0
C[C@@H](Oc1cc(-n2cnc3cc(-c4ccncc4)ccc32)sc1C(N)=O)c1ccccc1Cl    4
C[C@@H]1CCN(C(=O)N2CCCC2)C[C@@H]1N(C)c1ncnc2[nH]ccc12    0

Problem: Tell me the measured %Inh of CC(C(=O)NC1CCN(c2ccnc(Nc3ccc(F)cc3)n2)C1)c1ccc(Cl)cc1 (centres unmarked) , please.
Result: 0
